- RUN DESCRIPTION: Cmax in high fat diet fed dog at 1 mg/kg, po in 0.5% methocel
- Type: ADME, organism-based, Canis lupus familiaris
- Parameters: route oral, dose 1 mg/kg
- STATED CONDITIONS: in vivo
ENDPOINT NAME: Cmax (nM)
All answers are understood in nM, so give the number only.

Could you tell me which Cmax is on file for COc1ncc(-c2ccc(C(=O)O)cc2C)cc1-c1ccc(C(F)(F)F)cc1[C@@H]1CC[C@H]2[C@@H](c3cc(C(F)(F)F)cc(C(F)(F)F)c3)OC(=O)N12 ?
300

* * *

- RUN DESCRIPTION: Half life in lean wild type mouse plasma at 10 mg/kg, po qd treated for 40 days
- Type: ADME, organism-based
- STATED CONDITIONS: time 40 day
ENDPOINT NAME: half-life (min)
I only need the number, in min, no unit after it.

I would be grateful if you could share the reported half-life for COc1ncc(-c2ccc(C(=O)O)cc2C)cc1-c1ccc(C(F)(F)F)cc1[C@@H]1CC[C@H]2[C@@H](c3cc(C(F)(F)F)cc(C(F)(F)F)c3)OC(=O)N12 .
48

* * *

- RUN DESCRIPTION: Plasma clearance in Beagle dog at 0.5 mg/kg, iv
- Type: ADME, organism-based, Canis lupus familiaris
ENDPOINT NAME: clearance (mL/min/kg)
Unit mL/min/kg implied. Number only.

Consider the compound COc1ncc(-c2ccc(C(=O)O)cc2C)cc1-c1ccc(C(F)(F)F)cc1[C@@H]1CC[C@H]2[C@@H](c3cc(C(F)(F)F)cc(C(F)(F)F)c3)OC(=O)N12 and give its measured clearance.
0.52

* * *

- RUN DESCRIPTION: AUC (0 to infinitive) in CD1 mouse at 2 mg/kg, po
- Type: ADME, organism-based
- Design: route oral, time infinity, dose 2 mg/kg
- STATED CONDITIONS: in vivo
ENDPOINT NAME: AUC(0-inf) (µM·h)
// return numeric value only (unit: µM·h, not printed)

Can you share its AUC(0-inf)? I mean this compound: COc1ncc(-c2ccc(C(=O)O)cc2C)cc1-c1ccc(C(F)(F)F)cc1[C@@H]1CC[C@H]2[C@@H](c3cc(C(F)(F)F)cc(C(F)(F)F)c3)OC(=O)N12
7.9

* * *

- RUN DESCRIPTION: Terminal half life in CD1 mouse at 1 mg/kg, iv
- Assay type: ADME, organism-based
- STATED CONDITIONS: in vivo, read-out: beta t1/2 (converted)
ENDPOINT NAME: half-life
Lab note: write values as number then unit, every time.

Suppose we examine the molecule COc1ncc(-c2ccc(C(=O)O)cc2C)cc1-c1ccc(C(F)(F)F)cc1[C@@H]1CC[C@H]2[C@@H](c3cc(C(F)(F)F)cc(C(F)(F)F)c3)OC(=O)N12 ; what half-life value has been reported?
4.4 h

* * *

- RUN DESCRIPTION: Tmax in Beagle dog at 2 mg/kg, po
- Format: ADME, organism-based, Canis lupus familiaris
- STATED CONDITIONS: in vivo
ENDPOINT NAME: Tmax (h)
Write it as a number; the unit h goes unstated.

Quick one: Tmax for COc1ncc(-c2ccc(C(=O)O)cc2C)cc1-c1ccc(C(F)(F)F)cc1[C@@H]1CC[C@H]2[C@@H](c3cc(C(F)(F)F)cc(C(F)(F)F)c3)OC(=O)N12 ?
1.7
